Attribution: ChEMBL document CHEMBL1133035

Recorded measurements of pIC50, one per entry
Tested on: MOLT-3
Measurement notes: Anti-leukemic activity against Molt-3 (T-lineage ALL) human acute lymphoblastic leukemia (ALL) cell line
Assay type: functional, cell-based
pIC50: −log10 of the molar value. Where a SMILES comes first, the peptide text is derived from it. The star is where a group is joined. Farnesyl = CC(C)=CCC/C(C)=C/CC/C(C)=C/C*; Boc = CC(C)(C)OC(=O)*; CH2Cl = ClC*

Worked cases, answers included:
[
  {
    "Compound": "CC(=O)N[C@@H](CSC/C=C(\\C)CCC=C(C)C)C(=O)C=[N+]=[N-]",
    "pIC50": "< 4.00"
  },
  {
    "Compound": "CC(=O)N[C@@H](CSCC=C(C)C)C(=O)C=[N+]=[N-]",
    "pIC50": "< 4.00"
  },
  {
    "Compound": "CC(C)=CCC/C(C)=C/CC/C(C)=C/CSCC(=O)CCl",
    "pIC50": "< 4.00"
  },
  {
    "Compound": "CC(=O)N[C@@H](CSC/C=C(\\C)CCC=C(C)C)C(=O)CCl",
    "pIC50": "< 4.00"
  }
]

For the compound CC(C)=CCC/C(C)=C/CC/C(C)=C/CSC[C@H](NC(=O)CNC(=O)OC(C)(C)C)C(=O)CCl (Boc-Gly-Cys(Farnesyl)-CH2Cl) , give its measured pIC50 value. 4.76
